target: T1, TP-27 (also: biotinylated, site not given here); experiment: indirect ELISA, biotinylated 15-mer on streptavidin plate, hybridoma supernatant
T1 construct: also called TP-27 peptide
T1 peptide: ADDQIAQSLCGEDLI
Where no end group is shown, it is not given here.

Binder	binding result
ACI-7062-404D6-Ab2 (antibody, IgG3, V domains shown, also called 404D6E11; clone 4) VH: QVTLKESGPGILQPSQTLSLTCSFSGFSLSTYGIGVGWIRQPSGKGLEWLAHIWWNDYKYYNTALKSRLTISKDTSNNRVFLKIASVDTADTATYYCARVYGNLYYFDYWGQGTTLTVSS VL: DVLMTQTPLSLPVSLGDQASISCRSSQSIVHGSGNTYLEWYLQKPGQSPKLLIYKVSNRFSGVPDRFSGSGSGTDFTLRISRVEAEDLGVYYCFQGSHVPTFGAGTKLELKR	no binding
ACI-7062-415C4-Ab1 (antibody, IgG1, V domains shown, also called 415C4C6; clone 14) VH: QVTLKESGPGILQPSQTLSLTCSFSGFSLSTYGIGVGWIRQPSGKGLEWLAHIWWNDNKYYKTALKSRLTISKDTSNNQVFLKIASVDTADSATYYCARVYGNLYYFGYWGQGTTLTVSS VL: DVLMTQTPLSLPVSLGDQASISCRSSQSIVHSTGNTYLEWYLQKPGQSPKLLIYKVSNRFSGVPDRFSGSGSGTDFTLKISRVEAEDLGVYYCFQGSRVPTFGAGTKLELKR	no binding
ACI-7062-416A11-Ab1 (antibody, IgG2a, V domains shown, also called 416A11B3; clone 18) VH: QVTLKESGPGILQSSQTLSLTCSFSGFSLSTYGIGVGWIRQPSGKGLEWLAHIWWNDNKYYNTALKSRLTISKDTSNNQVFLKIASVDTADAATYYCARVYGNLYYFGYWGQGTTLTVSS VL: DVLMTQTPLSLPVSLGDRASISCRSSQSIVHSSGNTYLEWYLQKPGQSPKLLIYKVSNRFSGVPDRFSGSGSGTDFTLKISRVEAEDLGVYYCFQGSRVPTFGAGTKLELKR	no binding
